# Tested on: FPRL-1 (Homo sapiens, UniProt P25090)
# Sequence (P25090 whole entry): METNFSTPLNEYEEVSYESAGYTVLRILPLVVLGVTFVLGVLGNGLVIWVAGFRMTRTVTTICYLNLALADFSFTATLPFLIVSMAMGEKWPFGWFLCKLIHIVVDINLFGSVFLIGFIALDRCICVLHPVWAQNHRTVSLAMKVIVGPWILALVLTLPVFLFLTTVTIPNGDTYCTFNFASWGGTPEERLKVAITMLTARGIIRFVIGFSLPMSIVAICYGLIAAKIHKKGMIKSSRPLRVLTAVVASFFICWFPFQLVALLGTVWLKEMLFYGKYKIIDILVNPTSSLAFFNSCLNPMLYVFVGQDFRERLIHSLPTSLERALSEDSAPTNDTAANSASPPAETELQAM
# Format: cell-based
# Settings: Intracellular Ca2+ mobilization pEC50 (n = 3), CHO cells co-expressing Gα16 and FPRL-1; mean±s.e. mean
Where no end group is shown, it is not given here.
Experimental endpoint: EC50 (nM)
Number in nM, nothing else.

Q: Quick one: EC50 of LWRRKIGPQMTLSHAAG [SHAAG peptide] ?
A: 182

From: patent US20060141460A1
